Data origin: patent US20200131669A1

# assay-method-text: Caco-2 membrane permeability, improved method as used in the following Examples (96-well, 20 to 24 h preincubation)
# Assay type: in vitro ADME
# applied-conditions: human, Caco-2, Caco-2 (cm/sec)
Positions of bridges follow the written chain, without caps; N, C: chain ends. Non-standard residues stand in square brackets, D forms with d. Residues, ends and D or L forms follow the SMILES beside them. *: point of attachment. NMePhe(3-Cl) = CN[C@@H](Cc1cccc(Cl)c1)C(=O)O; NMeF = CN[C@@H](Cc1ccccc1)C(=O)O; NMeL = CN[C@@H](CC(C)C)C(=O)O; NMeV = CN[C@H](C(=O)O)C(C)C; NMeA = CN[C@@H](C)C(=O)O; Piperidide = C1CCN(*)CC1; Sar = CNCC(=O)O; tBu = CC(C)(C)*

[
  {
    "compound": "CC(C)C[C@@H]1NC(=O)[C@H](Cc2ccccc2)N(C)C(=O)[C@@H](C(C)C)NC(=O)C[C@@H](C(=O)N2CCCCC2)NC(=O)[C@H](C)N(C)C(=O)[C@H](CC(C)C)N(C)C(=O)[C@H](COC(C)(C)C)NC(=O)[C@H](CC(C)C)N(C)C(=O)CN(C)C(=O)[C@H](Cc2ccc(O)cc2)NC(=O)[C@H](CC(C)C)N(C)C1=O [pd127] ([dV][NMeF]L[NMeL]Y[Sar][NMeL]S(tBu)[NMeL][NMeA]D-Piperidide; lactam N-11)",
    "Papp A→B at 180 min (×10⁻⁶ cm/s)": 0.13
  },
  {
    "compound": "CC[C@H](C)[C@@H]1NC(=O)[C@H](Cc2ccccc2)N(C)C(=O)CN(C)C(=O)C[C@@H](C(=O)N2CCCCC2)NC(=O)[C@H](C(C)C)N(C)C(=O)[C@H](COC(C)(C)C)NC(=O)[C@H](CC(C)C)N(C)C(=O)[C@H](Cc2cccc(Cl)c2)N(C)C(=O)CN(C)C(=O)[C@H]([C@@H](C)O)NC(=O)[C@H](CC(C)C)N(C)C1=O [pd158] ([Sar][NMeF]I[NMeL]T[Sar][NMePhe(3-Cl)][NMeL]S(tBu)[NMeV]D-Piperidide; lactam N-11)",
    "Papp A→B at 180 min (×10⁻⁶ cm/s)": 1.4
  }
]
